- measurementTarget: IDH1 wt/IDH1 R132H heterodimer (Homo sapiens (Human), UniProt O75874, R132H)
- Sequence (O75874 whole entry R132H): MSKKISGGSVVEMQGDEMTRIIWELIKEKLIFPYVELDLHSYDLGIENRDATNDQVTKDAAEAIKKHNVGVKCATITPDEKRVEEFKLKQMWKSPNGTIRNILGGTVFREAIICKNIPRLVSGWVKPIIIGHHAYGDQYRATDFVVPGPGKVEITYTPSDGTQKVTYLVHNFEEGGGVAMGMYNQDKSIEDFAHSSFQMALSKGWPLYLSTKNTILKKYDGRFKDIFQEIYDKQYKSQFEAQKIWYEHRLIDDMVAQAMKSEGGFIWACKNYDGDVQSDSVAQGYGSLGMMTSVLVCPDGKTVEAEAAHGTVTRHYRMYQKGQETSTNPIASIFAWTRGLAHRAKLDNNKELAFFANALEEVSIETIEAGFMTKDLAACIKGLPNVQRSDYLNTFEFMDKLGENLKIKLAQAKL
- Sequence (O75874 whole entry, stated change not applied): as the sequence (O75874 whole entry R132H) above, with H132R counted along it
- experimentNotes: In vitro assay for IDH1m R132H inhibitors, IDH1 wt/IDH1 R132H heterodimer, NADPH depletion (diaphorase/resazurin)
- Assay type: biochemical
- recordedConditions: IDH1 wt/R132H heterodimer, NADPH/NADP, not saturated; read-out: IDH1 wt/R132H NADPH/NADP IC50 not saturated
resultType: IC50

Known IC50 results, listed for orientation:
- compound: "CC(Nc1nc(N[C@H](C)C2CC2)nc(-c2cccc(C(F)(F)F)n2)n1)C(F)(F)F (stereo partly drawn) [Compound 203]"
  measurementTarget: "IDH1 wt/IDH1 R132H heterodimer (Homo sapiens (Human), UniProt O75874, R132H)"
  IC50: "< 50 nM"
- compound: "CC(Nc1nc(NC(C)C(F)(F)F)nc(-c2cncc(Cl)n2)n1)C(F)(F)F (stereo not drawn) [Compound 156]"
  measurementTarget: "IDH1 wt/IDH1 R132H heterodimer (Homo sapiens (Human), UniProt O75874, R132H)"
  IC50: "< 50 nM"
- compound: "COCC(COC)Nc1nc(N[C@H](C)C2CC2)nc(-c2cccc(C(F)(F)F)n2)n1 [Compound 63]"
  measurementTarget: "IDH1 wt/IDH1 R132H heterodimer (Homo sapiens (Human), UniProt O75874, R132H)"
  IC50: "50 to 100 nM"

Just so you know, measured IC50 for Cn1c(Nc2nc(NC3CCC(F)(F)C3)nc(-c3cccc(C(F)(F)F)n3)n2)cc2ccccc21 (stereo not drawn) [Compound 316] came out at > 1000 nM

Just so you know, measured IC50 for CC[C@H](Nc1nc(N[C@H](CC)C(F)(F)F)nc(-c2cccc(Cl)n2)n1)C(F)(F)F [Compound 196] came out at < 50 nM

###

- measurementTarget: IDH1 wt/IDH1 R132H heterodimer (Homo sapiens (Human), UniProt O75874, R132H)
- experimentNotes: In vitro assay for IDH1m R132H inhibitors, IDH1 wt/IDH1 R132H heterodimer, NADPH depletion (diaphorase/resazurin)
- Format: biochemical
- recordedConditions: IDH1 wt/IDH1 R132H heterodimer, 300 μM NADP (saturated); read-out: IDH1 wt/R132H NADPH/NADP IC50 saturated
resultType: IC50

- compound: "C[C@@H](Nc1nc(Nc2ccnc(C3(C#N)CC3)c2)nc(-c2cccc(C(F)(F)F)n2)n1)C(F)(F)F [Compound 352]"
  measurementTarget: "IDH1 wt/IDH1 R132H heterodimer (Homo sapiens (Human), UniProt O75874, R132H)"
  IC50: "< 50 nM"
- compound: "N#CC1(c2cc(Nc3nc(NC4CCC(F)(F)CC4)nc(-c4cncc(C(F)F)n4)n3)ccn2)CC1 [Compound 338]"
  measurementTarget: "IDH1 wt/IDH1 R132H heterodimer (Homo sapiens (Human), UniProt O75874, R132H)"
  IC50: "50 to 100 nM"
- compound: "FC(F)c1csc(-c2nc(NC3CC(F)(F)C3)nc(NC3CC(F)(F)C3)n2)n1 [Compound 403]"
  measurementTarget: "IDH1 wt/IDH1 R132H heterodimer (Homo sapiens (Human), UniProt O75874, R132H)"
  IC50: "< 50 nM"
- compound: "CC(F)(F)c1csc(-c2nc(NC3CCC(F)(F)CC3)nc(NC3CCC(F)(F)CC3)n2)n1 [Compound 357]"
  measurementTarget: "IDH1 wt/IDH1 R132H heterodimer (Homo sapiens (Human), UniProt O75874, R132H)"
  IC50: "50 to 100 nM"
- compound: "CC[C@H](Nc1nc(N[C@@H](CC)C(F)(F)F)nc(-c2cccc(C(F)(F)F)n2)n1)C(F)(F)F [Compound 346]"
  measurementTarget: "IDH1 wt/IDH1 R132H heterodimer (Homo sapiens (Human), UniProt O75874, R132H)"
  IC50: "< 50 nM"
- compound: "N#CC1(c2cc(Nc3nc(N[C@@H]4CCC(F)(F)C4)nc(-n4ccc(C(F)(F)F)n4)n3)ccn2)CC1 [Compound 350]"
  measurementTarget: "IDH1 wt/IDH1 R132H heterodimer (Homo sapiens (Human), UniProt O75874, R132H)"
  IC50: "< 50 nM"
- compound: "C[C@@H](Nc1nc(N[C@H](C)C2CC2)nc(-c2cccc3[nH]ccc23)n1)C1CC1 [Compound 396]"
  measurementTarget: "IDH1 wt/IDH1 R132H heterodimer (Homo sapiens (Human), UniProt O75874, R132H)"
  IC50: "> 1000 nM"
- compound: "FC1(F)CC[C@@H](Nc2nc(Nc3ccnc(C(F)(F)F)c3)nc(-c3cncc(C(F)(F)F)n3)n2)C1 [Compound 116]"
  measurementTarget: "IDH1 wt/IDH1 R132H heterodimer (Homo sapiens (Human), UniProt O75874, R132H)"
  IC50: "< 50 nM"
- compound: "CC(C)(O)CNc1nc(Nc2cc(F)cc(C(F)(F)F)c2)nc(-c2cccc(C(C)(F)F)n2)n1 [Compound 397]"
  measurementTarget: "IDH1 wt/IDH1 R132H heterodimer (Homo sapiens (Human), UniProt O75874, R132H)"
  IC50: "100 to 1000 nM"
- compound: "N#CC1(c2cc(Nc3nc(N[C@H]4CCC(F)(F)C4)nc(-c4ccnc(C(F)(F)F)n4)n3)ccn2)CC1 [Compound 341]"
  measurementTarget: "IDH1 wt/IDH1 R132H heterodimer (Homo sapiens (Human), UniProt O75874, R132H)"
  IC50: "100 to 1000 nM"

Just so you know, measured IC50 for C[C@@H](Nc1nc(Nc2ccnc(-c3ccccc3)c2)nc(-c2cccc(C(F)(F)F)n2)n1)C(F)(F)F [Compound 359] came out at < 50 nM

Just so you know, measured IC50 for CC[C@H](Nc1nc(N[C@@H](CC)C(F)(F)F)nc(-c2cncc(C(F)(F)F)n2)n1)C(F)(F)F [Compound 339] came out at < 50 nM

Just so you know, measured IC50 for CC(F)(F)c1cncc(-c2nc(NC3CCC(F)(F)C3)nc(NC3CCC(F)(F)C3)n2)n1 (stereo not shown) [Compound 370] came out at < 50 nM

Just so you know, measured IC50 for C[C@@H](Nc1nc(Nc2ccnc(C(F)(F)F)c2)nc(-n2ccc(C(F)(F)F)n2)n1)C(F)(F)F [Compound 400] came out at < 50 nM

Just so you know, measured IC50 for CC(F)(F)c1cc(Nc2nc(N[C@@H]3CCC(F)(F)C3)nc(-c3cccc(C(F)(F)F)n3)n2)ccn1 [Compound 355] came out at < 50 nM

Just so you know, measured IC50 for C[C@H](Nc1nc(Nc2ccnc(C3(C#N)CC3)c2)nc(-c2cccc(C(F)(F)F)n2)n1)C(F)(F)F [Compound 351] came out at < 50 nM

Data origin, for the record: patent US10028961B2
